System: SKOV3
measurement_protocol: Primary qHTS to identify gynecologic anti-cancer compounds using libraries of approved drugs and bioactive compounds (AID 1345084); further: nearly all actives have a fitted effect of over 55% in size
assay_context: Gynecologic cancer cell panel viability, ATPlite luminescence, 48 h; series mostly up to 57.5 µM
Records with an inconclusive call do not appear. Activity calls are given as the source filed them. The call rests on the fitted dose curve; in most records, active means well fitted cell-killing curve with a large enough effect; inconclusive means small, poorly fitted or top-dose-only effect, or effect the other way; inactive means flat fitted curve, though single readings scatter.
endpoint_name: outcome

Study these solved cases before continuing.
Cc1ccccc1N1C(=O)c2cc(S(N)(=O)=O)c(Cl)cc2NC1C (configuration not stated) : inactive
CC(C)NCC(O)c1ccc(O)c(O)c1 (configuration not stated) : inactive
COc1cc2nc(N(C)CCCNC(=O)C3CCCO3)nc(N)c2cc1OC (configuration not stated) : inactive
NC12CC3CC(CC(C3)C1)C2 : inactive
N[C@@H](Cc1c[nH]c2ccc(O)cc12)C(=O)O : inactive

// outcome lookup, molecule = COc1ccccc1OCCNCC(O)COc1cccc2[nH]c3ccccc3c12 (configuration not stated) , result: inactive

// outcome lookup, molecule = CC1(CN2CCC(n3c(=O)[nH]c4ccccc43)CC2)OCc2ccccc2-n2cccc21 (configuration not stated) , result: inactive

// outcome lookup, molecule = O=c1[nH]cc(F)c(=O)[nH]1 , result: inactive

// outcome lookup, molecule = NCCCCCC(=O)O , result: inactive

// outcome lookup, molecule = O=C1Cc2cc(CCN3CCN(c4nsc5ccccc45)CC3)c(Cl)cc2N1 , result: inactive

// outcome lookup, molecule = CCC1(c2ccccc2)C(=O)NCNC1=O , result: inactive

// outcome lookup, molecule = O=C1N(c2ccccc2)c2ccccc2C1(Cc1ccncc1)Cc1ccncc1 , result: inactive

###

tested_target: ATP-dependent 6-phosphofructokinase (Trypanosoma brucei brucei)
measurement_protocol: qHTS Validation Assay to Find Inhibitors of T. brucei phosphofructokinase (AID 485368)
assay_context: T. brucei PFK enzyme assay, qHTS 7-point titration; series mostly up to 57.5 µM
Results filed as inconclusive are left out. Calls of active or inactive are those of the source. The call rests on the fitted dose curve; in most records, active means well fitted inhibition curve with a large enough effect; inconclusive means small, poorly fitted or top-dose-only effect, or effect the other way; inactive means flat fitted curve, though single readings scatter.
The categories you may choose from are y (active), n (inactive)

# fetch the recorded call for COc1ccc(C2CNC(=O)C2)cc1OC1CCCC1 (stereo unspecified) here n

# fetch the recorded call for O=C1Cc2cc(CCN3CCN(c4nsc5ccccc45)CC3)c(Cl)cc2N1 here n

# fetch the recorded call for O=c1c(-c2ccc(O)cc2)coc2cc(O)cc(O)c12 here n

# fetch the recorded call for CN(C)CCC=C1c2ccccc2C=Cc2ccccc21 here n

# fetch the recorded call for CN(C)C(=O)C(CCN1CCC(O)(c2ccc(Cl)cc2)CC1)(c1ccccc1)c1ccccc1 here n

# fetch the recorded call for C[C@](N)(Cc1ccc(O)c(O)c1)C(=O)O here y

###

measurement_protocol: S16 Schwann cell viability assay (CellTiter-Glo assay) (AID 624031); further: nearly all actives have a fitted effect of over 70% in size
assay_context: S16 rat Schwann cells viability, 24 h; series mostly up to 57.5 µM
Results filed as inconclusive are left out. Active and inactive are the calls of the source. The call rests on the fitted dose curve; in most records, active means well fitted cell-killing curve with a large enough effect; inconclusive means small, poorly fitted or top-dose-only effect, or effect the other way; inactive means flat fitted curve, though single readings scatter.
The categories you may choose from are TRUE = active, FALSE = inactive

# fetch the recorded call for O=C(c1ccc(F)cc1)C1CCN(CCn2c(=O)[nH]c3ccccc3c2=O)CC1 here FALSE

# fetch the recorded call for COc1ccccc1OCC(O)CN1CCN(CC(=O)Nc2c(C)cccc2C)CC1 (stereo not drawn) here FALSE

# fetch the recorded call for CN(C)CCCN1c2ccccc2CCc2ccc(Cl)cc21 here TRUE

# fetch the recorded call for NC(=O)NO here FALSE

# fetch the recorded call for CC(COc1ccccc1)N(CCCl)Cc1ccccc1 (stereo not drawn) here FALSE

# fetch the recorded call for CN(C)C(=N)N=C(N)N here FALSE

# fetch the recorded call for Cc1cnc(C(=O)NCCc2ccc(S(=O)(=O)NC(=O)NC3CCCCC3)cc2)cn1 here FALSE

# fetch the recorded call for CN1CCN2c3ccccc3Cc3ccccc3C2C1 (stereo not drawn) here FALSE
